Target desc: interaction between glucokinase (GK) and glucokinase regulatory protein (GKRP) (Homo sapiens, UniProt Q14397)
Test name: biochemical
Type: binding
Experimental setup: avi-tagged GKRP, GK-fluorescein, AlphaScreen beads; read-out: GK-GKRP IC50 (Binding)
Measurement name: log10(IC50) (log10 of the value in nM)
For clarity, the numbers are log10 values of IC50 expressed in nM.

Example entries begin here.
CC1(C)C(=O)NCCN1C[C@H]1CN(S(=O)(=O)c2cccs2)CCN1c1ccc(C(C)(O)C(F)(F)F)cc1 (mixture of isomers) [Example 180]	1.34
COC(C#Cc1cc(C(O)(C(F)(F)F)C(F)(F)F)ccc1N1CCN(S(=O)(=O)c2cccs2)CC1)C(C)C (racemic)	2.82
CC(C)C1C(=O)NCCN1C[C@H]1CN(S(=O)(=O)c2cccs2)CCN1c1ccc(C(C)(O)C(F)(F)F)cc1 (single isomer, unassigned) [Example 181 Peak #2]	0.00
CS(=O)(=O)NCC#Cc1cc(C(O)(C(F)(F)F)C(F)(F)F)ccc1N1CCN(S(=O)(=O)c2cccs2)CC1	2.89
CN(C[C@H]1CN(S(=O)(=O)c2cccs2)CCN1c1ccc(C(C)(O)C(F)(F)F)cc1)S(C)(=O)=O (mixture of isomers)	2.05

Then there is this molecule:
For O=S(=O)(c1cccs1)N1CCN(c2ncc(C(O)(C(F)(F)F)C(F)(F)F)cn2)[C@@H](CN2C3COCC2C(O)C3)C1 (single isomer, unassigned) [Example 79 Peak #1] the molecule record lists log10(IC50) as 1.69

* * *

Target desc: interaction between glucokinase (GK) and glucokinase regulatory protein (GKRP) (Homo sapiens, UniProt Q14397)
Test name: biochemical
Type: binding
Experimental setup: GK-GKRP IC50 (Binding), avi-tagged GKRP, GK-fluorescein, AlphaScreen beads
Counter-ions that a name gives are not always drawn.
Parameter IC50: see the listing below.
Reply with just the number (in nM).

For NCC#Cc1cc(C(O)(C(F)(F)F)C(F)(F)F)ccc1N1CCN(S(=O)(=O)c2cccs2)CC1 [Example 159, trifluoroacetate] the compound record lists IC50 as 1920

For CC(O)(c1ccc(N2CCN(S(=O)(=O)c3cccs3)C[C@@H]2CNC2CC2)cc1)C(F)(F)F (mixture of isomers) the compound record lists IC50 as 713

For CC(O)(c1ccc(N2CCN(S(=O)(=O)c3cccs3)C[C@@H]2CN2C3CCCC2CC(=O)C3)cc1)C(F)(F)F (mixture of isomers) the compound record lists IC50 as 7

For "Nc1ccc(S(=O)(=O)N2CCN(c3ncc(C(O)(C(F)(F)F)C(F)(F)F)cn3)[C@@H](CN3C4COCC3CC(=O)C4)C2)s1" the compound record lists IC50 as 16

* * *

Target desc: GKRP (Glucokinase Regulatory Protein) with human His-hepatic GK (Homo sapiens)
Sequence (Q14397 1-625): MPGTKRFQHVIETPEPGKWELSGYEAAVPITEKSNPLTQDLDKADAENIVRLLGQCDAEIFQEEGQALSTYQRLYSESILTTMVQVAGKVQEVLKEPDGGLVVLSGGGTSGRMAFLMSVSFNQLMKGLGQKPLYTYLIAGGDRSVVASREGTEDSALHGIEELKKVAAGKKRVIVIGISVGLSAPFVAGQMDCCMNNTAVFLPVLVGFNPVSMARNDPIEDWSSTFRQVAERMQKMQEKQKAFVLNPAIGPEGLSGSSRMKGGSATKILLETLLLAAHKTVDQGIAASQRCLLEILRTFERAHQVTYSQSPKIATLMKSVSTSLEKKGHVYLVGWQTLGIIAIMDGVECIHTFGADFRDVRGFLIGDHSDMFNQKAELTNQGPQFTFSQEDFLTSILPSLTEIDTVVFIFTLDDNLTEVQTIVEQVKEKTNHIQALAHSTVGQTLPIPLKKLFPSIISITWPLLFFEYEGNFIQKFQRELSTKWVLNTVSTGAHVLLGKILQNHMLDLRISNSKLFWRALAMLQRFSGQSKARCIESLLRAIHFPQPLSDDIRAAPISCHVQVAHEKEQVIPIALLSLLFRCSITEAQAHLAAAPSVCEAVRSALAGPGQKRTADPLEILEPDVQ
Test name: GKRP LC MS/MS Biochemical Assay
Experimental setup: GK-GKRP EC50 (LC MS/MS), 13C-glucose-6-phosphate formation; 1 μM GKRP (10×), 30 nM GK (5×)
pEC50: −log10 of the molar value. Where a name gives a salt, the structure may show the parent alone.
Mark MET for reported pEC50 of 6 or greater; mark NOT MET for anything smaller.

These solved cases illustrate the format of a correct answer.
O=S(=O)(c1c[nH]cn1)N1CCN(c2ccc(C(O)(C(F)(F)F)C(F)(F)F)cc2)CC1	NOT MET
O=S(=O)(c1ccccc1)N1CCN(c2ccc(C(O)(C(F)(F)F)C(F)(F)F)cn2)CC1	NOT MET
O=S(=O)(c1ccccc1)N1CCN(c2ccc(C(O)(C3CC3)C(F)(F)F)cc2)CC1 (racemic)	NOT MET
CC(O)(c1ccc(N2CCN(S(=O)(=O)c3cccs3)C[C@@H]2Cc2ccccc2)cc1)C(F)(F)F (single isomer, unassigned) [Example 65 Peak #2]	MET
CC(O)(c1ccc(N2CCN(S(=O)(=O)c3ccccc3)CC2)cc1)C(F)(F)F (single isomer, unassigned) [Example 24 Peak #2]	NOT MET

Challenge: Reported pEC50 reaches at least 6 for "O=S(=O)(c1cccs1)N1CCN(c2ccc(C(O)(C(F)(F)F)C(F)(F)F)cc2-c2ccsc2)CC1" ?
Response given: NOT MET

Challenge: Reported pEC50 reaches at least 6 for C[C@H]1COCCN1CC1CN(S(=O)(=O)c2cccs2)CCN1c1ccc(C(C)(O)C(F)(F)F)cc1 (single isomer, unassigned) [Example 45 Peak #1] ?
Response given: MET

Challenge: Reported pEC50 reaches at least 6 for CC(O)(c1ccc(N2CCN(S(=O)(=O)c3ccccc3)CC2)cc1)C(F)(F)F (single isomer, unassigned) [Example 24 Peak #1] ?
Response given: NOT MET

Challenge: Reported pEC50 reaches at least 6 for CC(O)(c1ccc(N2CCN(S(=O)(=O)c3cccs3)CC2COCc2ccccc2)cc1)C(F)(F)F (mixture of isomers) ?
Response given: MET

Challenge: Reported pEC50 reaches at least 6 for O=S(=O)(c1cccs1)N1CCN(c2ccc(C(O)(C(F)(F)F)C(F)(F)F)cc2-c2ccccc2)CC1 [Example 69, trifluoroacetate] ?
Response given: NOT MET
